test-system: Lili-Mip1 (Diploptera punctata)
Construct: recombinant, codon-optimised synthetic gene, secreted from S. cerevisiae FGY217 with Ost1 or alpha-factor signal; untagged pYES2 version likely (also made with C-terminal His tag)
assay-name: intrinsic tryptophan fluorescence titration
Type: binding
conditions-used: read-out: Stearic acid (18:0)
reported-property: Kd (nM)
Please reply with the bare figure in nM and do not write the unit itself.

Ask: Please report the recorded Kd for `CCCCCCCCCCCCCCCCCC(=O)O` .
Result: 1710

---

test-system: Lili-Mip1 (Diploptera punctata)
Construct: recombinant, codon-optimised synthetic gene, secreted from S. cerevisiae FGY217 with Ost1 or alpha-factor signal; untagged pYES2 version likely (also made with C-terminal His tag)
assay-name: intrinsic tryptophan fluorescence titration
Assay type: binding
conditions-used: read-out: Palmitoleic acid (16:1)
reported-property: pKd
The quantity pKd is defined as the negative base-10 logarithm of the molar concentration.

Ask: Find pKd (Lili-Mip1 (Diploptera punctata)) for the entry `CCCCCC/C=C\CCCCCCCC(=O)O`
Result: 5.81

---

test-system: Lili-Mip3
Construct: recombinant, codon-optimised synthetic gene, secreted from S. cerevisiae FGY217 with Ost1 or alpha-factor signal; untagged pYES2 version likely (also made with C-terminal His tag)
assay-name: intrinsic tryptophan fluorescence titration
Format: binding, Diploptera punctata
conditions-used: 50 mM sodium acetate pH 4.8, 100 mM NaCl, 25°C; delipidated protein; read-out: Linoleic acid (18:2)
reported-property: Kd (nM)
Note: unit nM is implicit; provide only the numeric part.

Ask: Given the compound `CCCCC/C=C\C/C=C\CCCCCCCC(=O)O` , what is its reported Kd?
Result: 270

---

test-system: Lili-Mip3
Construct: recombinant, codon-optimised synthetic gene, secreted from S. cerevisiae FGY217 with Ost1 or alpha-factor signal; untagged pYES2 version likely (also made with C-terminal His tag)
assay-name: intrinsic tryptophan fluorescence titration
Type: binding, Diploptera punctata
conditions-used: 50 mM sodium acetate pH 4.8, 100 mM NaCl, 25°C; delipidated protein; read-out: Palmitoleic acid (16:1)
reported-property: pKd
In simple prose, pKd is minus the logarithm base ten of a concentration in moles per litre.

Ask: Which pKd is listed for CCCCCC/C=C\CCCCCCCC(=O)O [Palmitoleic acid] ?
Result: 6.06

---

test-system: Lili-Mip1 (Diploptera punctata)
Construct: recombinant, codon-optimised synthetic gene, secreted from S. cerevisiae FGY217 with Ost1 or alpha-factor signal; untagged pYES2 version likely (also made with C-terminal His tag)
assay-name: intrinsic tryptophan fluorescence titration
Format: binding
conditions-used: read-out: Palmitic acid (16:0)
reported-property: Kd (nM)
Answer with a number only, understood to be in nM.

Ask: # value lookup — system Lili-Mip1 (Diploptera punctata), readout Kd, item CCCCCCCCCCCCCCCC(=O)O [Palmitic acid]
Result: 1760

---

test-system: Lili-Mip1 (Diploptera punctata, UniProt Q6SVB6)
Construct: recombinant, codon-optimised synthetic gene, secreted from S. cerevisiae FGY217 with Ost1 or alpha-factor signal; untagged pYES2 version likely (also made with C-terminal His tag)
Sequence (Q6SVB6 entry or part of it): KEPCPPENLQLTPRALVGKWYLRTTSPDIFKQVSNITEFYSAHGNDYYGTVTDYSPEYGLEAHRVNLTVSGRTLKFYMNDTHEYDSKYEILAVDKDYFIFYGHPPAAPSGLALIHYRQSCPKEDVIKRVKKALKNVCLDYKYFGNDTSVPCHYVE
assay-name: intrinsic tryptophan fluorescence titration
Type: binding
conditions-used: read-out: Myristoleic acid (14:1)
reported-property: pKd
Just the number, please; pKd means minus log10 of the concentration in mol/L.

Ask: // pKd lookup, key: `CCCC/C=C\CCCCCCCC(=O)O`
Result: 5.69

---

test-system: Lili-Mip2 (Diploptera punctata)
Construct: recombinant, codon-optimised synthetic gene, secreted from S. cerevisiae FGY217 with Ost1 or alpha-factor signal; untagged pYES2 version likely (also made with C-terminal His tag)
Sequence (Q6SVB5 entry or part of it): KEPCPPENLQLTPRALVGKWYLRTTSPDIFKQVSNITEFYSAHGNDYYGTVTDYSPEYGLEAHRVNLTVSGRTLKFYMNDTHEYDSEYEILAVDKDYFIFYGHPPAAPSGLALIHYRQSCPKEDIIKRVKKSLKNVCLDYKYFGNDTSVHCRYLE
assay-name: intrinsic tryptophan fluorescence titration
Type: binding
conditions-used: read-out: Stearic acid (18:0)
reported-property: Kd (nM)
// units = nM; emit number, no label

Ask: Fill in the blank: the reported Kd of CCCCCCCCCCCCCCCCCC(=O)O [Stearic acid] is ____.
Result: 2320
